Data provenance: ChEMBL document CHEMBL3286148

- Tested on: Plasmodium falciparum
- assay explanation: microbe, parasite or virus in culture
- test parameters: NF54, 72 h
experimental readout: IC50 (nM)
Answers are plain numbers, in nM.

- Nc1nc2ccc(NCC(F)(F)F)nc2n1CC(O)c1ccc(Cl)cc1Cl (racemic): 40
- C[C@@H]1CC[C@H]2[C@@H](C)C(=O)O[C@@H]3O[C@@]4(C)CC[C@@H]1[C@]32OO4 [ARTEMISININ]: 7.05
- Nc1nc2ccc(C3CC3)nc2n1CC(O)c1ccc(Cl)cc1Cl (racemic): 96
- Cc1nc(N)n(CC(O)c2ccc(Cl)cc2Cl)c1C (racemic): 300

Let's switch to this compound now.
IN: What value of IC50 has been reported for the following compound? O=C1C(O)=C([C@H]2CC[C@H](c3ccc(Cl)cc3)CC2)C(=O)c2ccccc21 [ATOVAQUONE]
OUT: 1.36

* * *

- assay explanation: Clearance in rat hepatocytes assessed per 1E6 cells
- Type: ADME, cell-based, Hepatocyte
- test parameters: read-out: CLH
Rule for this label: Condition met means hepatocyte CLint is less than 40 µL/min/1e6 cells; Condition not met means hepatocyte CLint is at least 40 µL/min/1e6 cells.

Reference set, count: 3
* CS(=O)(=O)c1ccc2nc(N)n(CC(O)c3cccc(Cl)c3Cl)c2c1 (racemic) | Condition not met
* Nc1nc2ccc(Cl)cc2n1CC(O)c1cccc(Cl)c1Cl (racemic) | Condition met
* CN1CCN(c2ccc3nc(N)n(CC(O)c4ccc(C(F)(F)F)cc4Cl)c3n2)CC1 (racemic) | Condition not met

IN: Consider Nc1nc2ccccc2n1CC(O)c1ccc(Cl)cc1Cl (racemic) . Does its hepatocyte CLint lie strictly below 40 µL/min/1e6 cells?
OUT: Condition not met

IN: How about Nc1nc2cccnc2n1CC(O)c1cccc(Cl)c1Cl (racemic) ?
OUT: Condition not met

* * *

- assay explanation: Cmax in Plasmodium falciparum 3D70087/N9 infected NODscidIL2Rgamma-null mouse at 3 mg/kg, po by LC-MS/MS analysis
- Format: ADME, organism-based
- Set-up: dose 3 mg/kg, route oral
- test parameters: in vivo
experimental readout: Cmax (ng/mL)
Numbers only, in ng/mL.

IN: # lookup: Cmax of CC(Oc1ccc2nc(N)n(CC(O)c3ccc(C(F)(F)F)cc3Cl)c2n1)C(F)(F)F (racemic)
OUT: 600

* * *

- experimental system: Cytochrome P450 2D6 (Homo sapiens, UniProt P10635)
- Sequence (P10635 whole entry): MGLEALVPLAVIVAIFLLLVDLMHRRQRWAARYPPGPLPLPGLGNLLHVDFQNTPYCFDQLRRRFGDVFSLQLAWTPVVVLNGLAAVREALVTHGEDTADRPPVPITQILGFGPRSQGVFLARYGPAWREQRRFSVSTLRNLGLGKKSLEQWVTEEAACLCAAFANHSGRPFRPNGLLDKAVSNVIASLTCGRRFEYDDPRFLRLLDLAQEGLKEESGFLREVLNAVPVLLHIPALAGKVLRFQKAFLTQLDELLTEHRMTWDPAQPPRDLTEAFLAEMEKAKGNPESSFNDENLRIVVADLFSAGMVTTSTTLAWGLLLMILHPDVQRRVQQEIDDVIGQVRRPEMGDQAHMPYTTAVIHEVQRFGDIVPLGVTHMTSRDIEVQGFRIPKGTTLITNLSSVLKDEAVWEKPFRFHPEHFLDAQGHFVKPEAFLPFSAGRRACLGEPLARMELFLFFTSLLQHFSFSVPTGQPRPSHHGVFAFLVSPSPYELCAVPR
experimental readout: IC50 (µM)
Numbers only, in µM.

- CN1CCN(c2ccc3nc(N)n(CC(O)c4ccc(C(F)(F)F)cc4Cl)c3n2)CC1 (racemic): 27.9
- Nc1nc2ccc(OC3CCOC3)nc2n1CC(O)c1ccc(C(F)(F)F)cc1Cl (racemic): 12.5
- Nc1nc2ccc(C(F)(F)F)cc2n1CC(O)c1ccc(C(F)(F)F)cc1Cl (racemic): 26.3

# input for lookup
IN: Enter reported IC50 observed with Cytochrome P450 2D6 (Homo sapiens, UniProt P10635) for CC(Oc1ccc2nc(N)n(CC(O)c3ccc(C(F)(F)F)cc3Cl)c2n1)C(F)(F)F (racemic)
OUT: 28.3

* * *

Quick record of IC50 values for Cytochrome P450 2C9 (Homo sapiens, UniProt P11712).
Numbers only, in µM.

• CC(Oc1ccc2nc(N)n(CC(O)c3ccc(C(F)(F)F)cc3Cl)c2n1)C(F)(F)F (racemic) = 22.9

Please turn your attention to the following entry.
IN: Kindly state the measured IC50 obtained for Nc1nc2ccc(C(F)(F)F)cc2n1CC(O)c1ccc(C(F)(F)F)cc1Cl (racemic) with Cytochrome P450 2C9 (Homo sapiens, UniProt P11712).
Sequence (P11712 whole entry): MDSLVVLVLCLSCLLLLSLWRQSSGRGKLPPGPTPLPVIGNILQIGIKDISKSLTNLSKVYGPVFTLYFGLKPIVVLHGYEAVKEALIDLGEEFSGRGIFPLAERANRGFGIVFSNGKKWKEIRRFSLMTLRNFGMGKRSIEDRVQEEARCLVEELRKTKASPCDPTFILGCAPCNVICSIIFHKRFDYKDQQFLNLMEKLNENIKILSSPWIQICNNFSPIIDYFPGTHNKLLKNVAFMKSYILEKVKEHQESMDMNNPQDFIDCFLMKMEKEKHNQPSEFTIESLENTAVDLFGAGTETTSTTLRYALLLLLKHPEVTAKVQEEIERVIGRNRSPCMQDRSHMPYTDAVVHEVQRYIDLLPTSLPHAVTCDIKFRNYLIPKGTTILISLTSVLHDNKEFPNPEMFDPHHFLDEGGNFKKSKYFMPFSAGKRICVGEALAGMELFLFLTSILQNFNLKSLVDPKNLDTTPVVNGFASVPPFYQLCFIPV
OUT: 27.9

* * *

- experimental system: Cytochrome P450 2C19 (Homo sapiens, UniProt P33261)
- Sequence (P33261 whole entry): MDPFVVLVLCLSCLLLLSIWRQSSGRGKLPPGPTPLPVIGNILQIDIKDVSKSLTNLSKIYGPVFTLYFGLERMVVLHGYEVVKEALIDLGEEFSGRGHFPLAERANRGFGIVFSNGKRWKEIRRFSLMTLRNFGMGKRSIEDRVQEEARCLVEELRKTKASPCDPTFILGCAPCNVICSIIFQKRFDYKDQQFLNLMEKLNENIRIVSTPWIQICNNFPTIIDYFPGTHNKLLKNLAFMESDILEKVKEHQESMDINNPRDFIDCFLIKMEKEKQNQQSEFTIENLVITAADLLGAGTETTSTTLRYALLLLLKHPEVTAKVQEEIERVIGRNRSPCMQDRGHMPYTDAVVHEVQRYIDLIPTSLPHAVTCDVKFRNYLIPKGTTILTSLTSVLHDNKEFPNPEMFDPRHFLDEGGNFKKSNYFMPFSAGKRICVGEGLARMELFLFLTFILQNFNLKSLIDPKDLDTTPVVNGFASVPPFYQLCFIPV
Entries whose IC50 is below 5 µM take 1 (yes); entries at or above 5 µM take 0 (no).

* CC(Oc1ccc2nc(N)n(CC(O)c3ccc(C(F)(F)F)cc3Cl)c2n1)C(F)(F)F (racemic) | 1 (yes)
* Nc1nc2cccnc2n1CC(O)c1cccc(Cl)c1Cl (racemic) | 0 (no)
* Nc1nc2ccc(OC3CCOC3)nc2n1CC(O)c1ccc(C(F)(F)F)cc1Cl (racemic) | 1 (yes)

Could you now look at the following compound, please?
IN: Decide: IC50 of Nc1nc2ccc(C(F)(F)F)cc2n1CC(O)c1ccc(C(F)(F)F)cc1Cl (racemic) strictly below 5 µM?
OUT: 1 (yes)

* * *

- assay explanation: Oral bioavailability in Wistar rat at 5 mg/kg
- Format: ADME, organism-based
- test parameters: in vivo
experimental readout: bioavailability (%)
Give bare numbers, in %.

IN: I'd like to know its bioavailability. The compound in question is CC(Oc1ccc2nc(N)n(CC(O)c3ccc(C(F)(F)F)cc3Cl)c2n1)C(F)(F)F (racemic)
OUT: 100

* * *

- Test system: Plasmodium falciparum
- assay explanation: Antiplasmodial activity against Plasmodium falciparum Dd2 harboring CRT mutant
- Type: functional, organism-based
experimental readout: log10 of IC50 (log10 of the value in nM)
Field: value | Transform: log10 | Quantity: IC50 | Unit: nM

# example entries with known answers
• C[C@@H]1CC[C@H]2[C@@H](C)C(=O)O[C@@H]3O[C@@]4(C)CC[C@@H]1[C@]32OO4 = 0.26
• Cc1nc2c(C#N)cccc2n1-c1ccc(C(=O)NC2CC2)s1 = 0.71
• COC1=C2C[C@@H](C)C[C@H](OC)[C@H](O)[C@@H](C)/C=C(\C)[C@H](OC(N)=O)[C@@H](OC)/C=C\C=C(/C)C(=O)NC(=CC1=O)C2=O = 2.31
• CN1CCN(C(=O)c2ccc3c(c2)N(Cc2c(F)cccc2Cl)C(=O)c2ccccc2S3)CC1 = 3.02

IN: Query: log10 of IC50; subject: Nc1nc2ccc(OCC(F)(F)F)nc2n1CC(O)c1ccc(C(F)(F)F)cc1Cl (racemic)
OUT: 1.21

* * *

- Test system: Mus musculus
- assay explanation: AUC (0 to 23 hrs) in Plasmodium falciparum 3D70087/N9 infected NODscidIL2Rgamma-null mouse at 30 mg/kg, po by LC-MS/MS analysis
- test parameters: in vivo
experimental readout: AUC (ng·h/mL)
One number for each entry, in ng·h/mL.

IN: Lab note: need AUC with Mus musculus for entry CC(Oc1ccc2nc(N)n(CC(O)c3ccc(C(F)(F)F)cc3Cl)c2n1)C(F)(F)F (racemic) , please look it up.
OUT: 2310

* * *

- assay explanation: AUC (0 to 23 hrs) in Plasmodium falciparum 3D70087/N9 infected NODscidIL2Rgamma-null mouse at 50 mg/kg, po by LC-MS/MS analysis
- Type: ADME, organism-based
- Design: time < 23 hr, dose 50 mg/kg, route oral
- test parameters: plasma
experimental readout: AUC(0-t) at 23 h

IN: I'd like to know its AUC(0-t) at 23 h. The molecule in question is CC(Oc1ccc2nc(N)n(CC(O)c3ccc(C(F)(F)F)cc3Cl)c2n1)C(F)(F)F (racemic)
OUT: 10400 ng·h/mL

* * *

- assay explanation: Clearance in human liver microsomes
- Format: ADME
- test parameters: read-out: CLH
Output met for microsomal CLint not less than 50 µL/min/mg; output not met otherwise.

Solved cases (8 shown):
• Nc1nc2cccnc2n1CC(O)c1cccc(Cl)c1Cl (racemic) = met
• Nc1nc2ccc(NCC(F)(F)F)nc2n1CC(O)c1ccc(Cl)cc1Cl (racemic) = not met
• Nc1nc2ccc(OCC(F)(F)F)nc2n1CC(O)c1ccc(C(F)(F)F)cc1Cl (racemic) = not met
• CS(=O)(=O)c1ccc2nc(N)n(CC(O)c3cccc(Cl)c3Cl)c2c1 (racemic) = met
• Nc1nc2ccc(OC3CCOC3)nc2n1CC(O)c1ccc(C(F)(F)F)cc1Cl (racemic) = met
• Nc1nc2cnccc2n1CC(O)c1ccc(Cl)cc1Cl (racemic) = not met
• CC(Oc1ccc2nc(N)n(CC(O)c3ccc(C(F)(F)F)cc3Cl)c2n1)C(F)(F)F (racemic) = not met
• Nc1nc2ccc(C3CC3)nc2n1CC(O)c1ccc(Cl)cc1Cl (racemic) = not met

IN: I'd appreciate it if you could say whether Nc1nc2ccc(C(F)(F)F)cc2n1CC(O)c1ccc(C(F)(F)F)cc1Cl (racemic) has microsomal CLint at least equal to 50 µL/min/mg.
OUT: not met

IN: Next entry: Nc1nc2ccc(OC3CNC3)nc2n1CC(O)c1ccc(C(F)(F)F)cc1Cl (racemic)
OUT: not met

IN: Also Nc1nc2ccccc2n1CC(O)c1ccc(Cl)cc1Cl (racemic) ?
OUT: not met

IN: What would you report for CN1CCN(c2ccc3nc(N)n(CC(O)c4ccc(C(F)(F)F)cc4Cl)c3n2)CC1 (racemic) ?
OUT: not met

IN: N#Cc1ccc2nc(N)n(CC(O)c3cccc(Cl)c3Cl)c2c1 (racemic) ?
OUT: met

* * *

- assay explanation: Volume of distribution at steady state in Wistar rat at 1 mg/kg, iv
- Type: ADME, organism-based
- Parameters: dose 1 mg/kg, route intravenous
- test parameters: in vivo, read-out: Vdss
experimental readout: Vd (L/kg)
Numbers only, in L/kg.

IN: Quick one: Vd of CC(Oc1ccc2nc(N)n(CC(O)c3ccc(C(F)(F)F)cc3Cl)c2n1)C(F)(F)F (racemic) ?
OUT: 2.49
